System: T-47D breast
Experimental Protocol: NCI-60 one-dose screen, 48 h
Experimental Parameters: 10 µM unless noted
This is part of a sample that, as a whole, favours compounds with a hit. Of some 83,000 tested, about 20% had one in any assay. Active and inactive are the calls of the source. The calls were made as follows: active = growth percent below 10; inactive = the rest.
Outcomes: YES = active, NO = inactive

CCc1c(C(=O)Nc2ccc3ccccc3c2)[nH]c(C)c1C(C)=O; NO
COC(=O)C(CC(=O)c1ccc(-c2ccccc2)cc1)c1ccccc1 (centres undefined); NO
c1ccc([P+](CCC[P+](c2ccccc2)(c2ccccc2)c2ccccc2)(c2ccccc2)c2ccccc2)cc1; NO
Cc1ccc(Nc2ncnc3c2sc2ncccc23)cc1; NO
C=C1C(=O)O[C@H]2[C@H]1CC/C(COC(=O)NCc1cc(OC)cc(OC)c1)=C\CC[C@@]1(C)O[C@@H]21; YES
CC(=O)Nc1ccc2c(c1)/C(=C\C=C/c1ccc([N+](C)(C)C)cc1)c1ccccc1-2; NO
O=S(=O)(NCCCNc1cc(-c2cn(-c3ccccc3)nc2-c2cccc(O)c2)ccn1)c1cccc2ccccc12; NO
CC/C=C\C/C=C\C[C@H](O)C/C=C1/C(=O)C=C[C@H]1C/C=C\CCC(=O)OC; NO
COC1=CC(c2ccc[nH]2)=N/C1=C\c1[nH]c(C)c(C(=O)CCCCC(=O)NCc2ccccc2)c1C; NO
